# Experimental System: B1R receptor of the rat (rB1R) (Rattus norvegicus, UniProt P97583)
# Construct: expressed in transfected cells; host or cells: CHO K1 cells, stably transfected
# Sequence (P97583 whole entry): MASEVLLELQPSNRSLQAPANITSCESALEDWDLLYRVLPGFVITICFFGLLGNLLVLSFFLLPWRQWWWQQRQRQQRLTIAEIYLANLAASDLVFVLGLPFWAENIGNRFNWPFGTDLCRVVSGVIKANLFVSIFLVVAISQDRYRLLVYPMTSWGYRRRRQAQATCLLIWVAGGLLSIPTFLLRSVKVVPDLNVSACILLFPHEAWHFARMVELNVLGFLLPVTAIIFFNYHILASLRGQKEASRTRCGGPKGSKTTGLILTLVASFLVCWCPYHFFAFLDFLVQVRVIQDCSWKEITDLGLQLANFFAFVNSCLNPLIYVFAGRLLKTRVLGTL
# Test: FLIPR Ca2+ functional study on bradykinin receptor 1, rB1R cells (CHO K1)
# Format: cell-based
# Recorded Conditions: 10 μM test substance; CHO K1 cells with rat B1R; agonist Des-Arg9-bradykinin at EC80; read-out: B1R antagonism, rat [10 μM] % inhibition
Output criterion met for inhibition at 10 µM not less than 80%; output criterion not met otherwise.

compound=COc1ccc2c(Cl)c(C(=O)N3CCc4ccc(C(=O)N5CCC6(CC5)CCN(c5ccncc5)CC6)cc4C3)sc2c1 class_label="criterion met"
compound=COc1cc(C)c(S(=O)(=O)N2CCCc3ccc(C(=O)N4CCC5(CC4)CCN(Cc4ccccc4)C5=O)cc32)c(C)c1 class_label="criterion not met"

Given the entry `COc1cc(C)c(S(=O)(=O)N2CCn3cnc(C(=O)N4CCC5(CC4)CCN(c4ccncc4)CC5)c3C2)c(C)c1` , answer whether its inhibition at 10 µM meets or surpasses 80%.
criterion met

Given the entry COc1cc(C)c(S(=O)(=O)N2CCc3ccc(C(=O)N4CCC5(CCN(Cc6ccccc6)C5)C4)cc32)c(C)c1 (stereo not drawn) , answer whether its inhibition at 10 µM meets or surpasses 80%.
criterion not met

Given the entry `O=C(Cc1ccc2c(c1)N(S(=O)(=O)c1cccc3ccccc13)CCC2)N1CCC2(CCC(N3CCC3)CC2)CC1` , answer whether its inhibition at 10 µM meets or surpasses 80%.
criterion not met

Given the entry `COc1cc(C)c(S(=O)(=O)N2CCc3ccc(C(=O)N4CCC5(CC4)C(=O)NCN5c4ccccc4)cc3C2)c(C)c1` , answer whether its inhibition at 10 µM meets or surpasses 80%.
criterion not met

Given the entry `O=C(Cc1ccc2c(c1)N(S(=O)(=O)c1cccc3ccccc13)CCC2)N1CCC2(CC1)CCN(c1ccncc1)CC2` , answer whether its inhibition at 10 µM meets or surpasses 80%.
criterion met

Given the entry `O=C(c1ccc2c(c1)CN(C(=O)c1cc3ccccc3s1)CC2)N1CCC2(CC1)CCN(c1ccncc1)CC2` , answer whether its inhibition at 10 µM meets or surpasses 80%.
criterion met

Given the entry `COc1cc(C)c(S(=O)(=O)N2CCCc3ccc(CC(=O)N4CCC5(CCC(N6CC(F)(F)C6)CC5)CC4)cc32)c(C)c1` , answer whether its inhibition at 10 µM meets or surpasses 80%.
criterion met

Given the entry `O=C(c1ccc2c(c1)CN(C(=O)c1cc3c(s1)CCC3)CC2)N1CCC2(CC1)CCN(c1ccncc1)CC2` , answer whether its inhibition at 10 µM meets or surpasses 80%.
criterion met

Given the entry COc1cc(C)c(S(=O)(=O)N2CCCc3ccc(CC(=O)N4CCC5(CCN(Cc6ccccc6)C5)C4)cc32)c(C)c1 (stereo not drawn) , answer whether its inhibition at 10 µM meets or surpasses 80%.
criterion not met

Given the entry `COc1cc(C)c(S(=O)(=O)N2CCc3ccc(CC(=O)N4CCC5(CC4)CCN(c4ccncc4)CC5)cc32)c(C)c1` , answer whether its inhibition at 10 µM meets or surpasses 80%.
criterion met

Given the entry `COc1cc(C)c(S(=O)(=O)N2CCc3ccc(CC(=O)N4CCC5(CC4)CCN(c4ccncc4)CC5)cc3C2)c(C)c1` , answer whether its inhibition at 10 µM meets or surpasses 80%.
criterion met
